# Tested on: DLG1 PDZ1
# run description: Phosphomimetic ProP-PD selection with NGS
# Format: binding, human
# stated conditions: mean of selections 1-3; bait DLG1 PDZ1; phosphomimetic peptide
# Description: Phage selections were carried out for four rounds following a protocol by Huang and Sidhu (Huang & Sidhu, 2011) with minor modifications. Non‐specific binding phage was removed by pre‐selections against immobilized GST throughout the selection. […] The naïve library and the enriched phage pools of the third day of selection were amplified and barcoded by PCR and analyzed by NGS as described elsewhere (McLaughlin & Sidhu, 2013; Ivarsson et al, 2014). […]
The following sequences are shown together with reported Mean fraction #NGS counts mimetic peptide / total count selection values.
assay endpoint: Mean fraction #NGS counts mimetic peptide / total count selection

{"biopolymer sequence": "HSIKQETAV", "reported value": 0.0009534}
{"biopolymer sequence": "MRLQSETEV", "reported value": "3.405e-5"}
{"biopolymer sequence": "ESGSQHTNV", "reported value": 0}
{"biopolymer sequence": "TRLEQHTDV", "reported value": "8.513e-6"}
{"biopolymer sequence": "KYDKELEPV", "reported value": 0.003147}
{"biopolymer sequence": "EIKLKTSFF", "reported value": 0.06227}
{"biopolymer sequence": "KPERISTVV", "reported value": 0.0005714}
{"biopolymer sequence": "RSRSIETDV", "reported value": 0.001793}
{"biopolymer sequence": "TMFLRETEL", "reported value": 0.002709}
{"biopolymer sequence": "SEGHTSTTL", "reported value": "5.924e-6"}
{"biopolymer sequence": "VWLRKEERV", "reported value": 0}
{"biopolymer sequence": "RREEYSTTV", "reported value": "1.94e-5"}
{"biopolymer sequence": "KREFIESNV", "reported value": "2.37e-6"}
{"biopolymer sequence": "VVHTPETEV", "reported value": 0.0004495}
{"biopolymer sequence": "VVHEPETEV", "reported value": "1.207e-5"}
{"biopolymer sequence": "EARLWETSI", "reported value": "3.0718e-6"}
{"biopolymer sequence": "RIESLESEV", "reported value": "1.703e-5"}
{"biopolymer sequence": "KLESIESDV", "reported value": 0}
{"biopolymer sequence": "GGKRKEELV", "reported value": "3.0718e-6"}
{"biopolymer sequence": "GELALLTKL", "reported value": "1.514e-5"}
{"biopolymer sequence": "SSGEQHTNV", "reported value": 0}

* * *

# Tested on: Scribble PDZ2
# run description: Phosphomimetic ProP-PD selection with NGS
# Type: binding, human
# stated conditions: bait Scribble PDZ2; mean of selections 1 and 2 (selection 3 empty)
Just a reminder that ties go to 0 (no): only Mean fraction #NGS counts mimetic peptide / total count selection strictly below 0.0006 counts as 1 (yes).

{"biopolymer sequence": "YPGSPDEWV", "cat": "1 (yes)"}
{"biopolymer sequence": "TELTWISTL", "cat": "0 (no)"}
{"biopolymer sequence": "KREFIESNV", "cat": "0 (no)"}
{"biopolymer sequence": "YPGEPDSWV", "cat": "1 (yes)"}
{"biopolymer sequence": "VWLRKEERV", "cat": "1 (yes)"}
{"biopolymer sequence": "HSIKQETAV", "cat": "0 (no)"}
{"biopolymer sequence": "SQERMETNM", "cat": "0 (no)"}
{"biopolymer sequence": "RSRSIETDV", "cat": "0 (no)"}
{"biopolymer sequence": "VVSERIESV", "cat": "1 (yes)"}
{"biopolymer sequence": "QEELKLSNL", "cat": "1 (yes)"}
{"biopolymer sequence": "SGEYLVTSV", "cat": "0 (no)"}
{"biopolymer sequence": "YPAEPDSWV", "cat": "1 (yes)"}

* * *

# Tested on: Scribble PDZ2
# run description: Phosphomimetic ProP-PD selection with NGS
# Type: binding, human
# stated conditions: mean over selections; bait Scribble PDZ2
The following sequences are shown together with reported Mean fraction #NGS counts wt peptide / total counts selection values.
assay endpoint: Mean fraction #NGS counts wt peptide / total counts selection

{"biopolymer sequence": "VVHTPETSV", "reported value": 0}
{"biopolymer sequence": "WVDSYYTSL", "reported value": 0}
{"biopolymer sequence": "TMFLRETSL", "reported value": 0.008166}
{"biopolymer sequence": "SGSYLVTSV", "reported value": 0.0003798}
{"biopolymer sequence": "RGLESATSL", "reported value": 0}
{"biopolymer sequence": "VVSERISSV", "reported value": 0.003259}

* * *

# Tested on: Scribble PDZ3
# run description: Phosphomimetic ProP-PD selection with NGS
# Assay type: binding, human
# stated conditions: mean of selections 1-3; bait Scribble PDZ3; wild type peptide
Just a reminder that ties go to Criterion not met: only Mean fraction #NGS counts wt peptide / total counts selection strictly below 0.0003 counts as Criterion met.

{"biopolymer sequence": "VRKLPSTTL", "target system": "Scribble PDZ3", "cat": "Criterion met"}
{"biopolymer sequence": "PIHSLETSL", "target system": "Scribble PDZ3", "cat": "Criterion not met"}
{"biopolymer sequence": "NSTNMESSL", "target system": "Scribble PDZ3", "cat": "Criterion met"}
{"biopolymer sequence": "ERLEYETTL", "target system": "Scribble PDZ3", "cat": "Criterion not met"}
{"biopolymer sequence": "VVHTPETSV", "target system": "Scribble PDZ3", "cat": "Criterion met"}
{"biopolymer sequence": "WVDSYYTSL", "target system": "Scribble PDZ3", "cat": "Criterion not met"}
{"biopolymer sequence": "KYVDAETSL", "target system": "Scribble PDZ3", "cat": "Criterion met"}
{"biopolymer sequence": "PLHSLETSL", "target system": "Scribble PDZ3", "cat": "Criterion met"}

* * *

# target system: Scribble PDZ1 (Homo sapiens, UniProt Q14160)
# Construct: human Scribble PDZ1 aa 719–829 in; made in house; host or cells: E. coli BL21 Gold (DE3)
# Sequence (Q14160 719-829): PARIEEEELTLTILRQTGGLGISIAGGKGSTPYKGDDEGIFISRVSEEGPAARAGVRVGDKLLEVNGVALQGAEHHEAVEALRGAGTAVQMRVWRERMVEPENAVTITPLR
# run description: Phosphomimetic ProP-PD selection with NGS
# Format: binding
# stated conditions: bait Scribble PDZ1; mean of selections 1-3
assay endpoint: Mean fraction #NGS counts wt peptide / total counts selection

{"biopolymer sequence": "TMFLRETSL", "reported value": 0.01417}
{"biopolymer sequence": "LAPNIISQL", "reported value": 0.000119}
{"biopolymer sequence": "VKRLLSSVF", "reported value": 0}
{"biopolymer sequence": "HEKVFTSAL", "reported value": 0}
{"biopolymer sequence": "PIHSLETSL", "reported value": 0.0009794}

* * *

The following sequences are shown together with reported Phosphorylated selection Mean fraction values.
# target system: Scribble PDZ1 (Homo sapiens, UniProt Q14160)
# Construct: human Scribble PDZ1 aa 719–829 in; made in house; host or cells: E. coli BL21 Gold (DE3)
# run description: Pre-phosphorylation ProP-PD: wild-type library treated with RPS6KA1 or not, selection with NGS
# Assay type: binding
# stated conditions: Pre-phosphorylation with RPS6KA1; mean of the two selections; bait Scribble PDZ1
assay endpoint: Phosphorylated selection Mean fraction

{"biopolymer sequence": "LPKIKETTV [FRMPD4]", "target system": "Scribble PDZ1 (Homo sapiens, UniProt Q14160)", "assay endpoint": "Phosphorylated selection Mean fraction", "reported value": 0.001062}
{"biopolymer sequence": "SIDLWETAL [SLC15A5]", "target system": "Scribble PDZ1 (Homo sapiens, UniProt Q14160)", "assay endpoint": "Phosphorylated selection Mean fraction", "reported value": 0.0004582}
{"biopolymer sequence": "SARLWETSI [ADAM22]", "target system": "Scribble PDZ1 (Homo sapiens, UniProt Q14160)", "assay endpoint": "Phosphorylated selection Mean fraction", "reported value": 0.05157}
{"biopolymer sequence": "RSRSISTDV [FAM163B]", "target system": "Scribble PDZ1 (Homo sapiens, UniProt Q14160)", "assay endpoint": "Phosphorylated selection Mean fraction", "reported value": 0}
{"biopolymer sequence": "DKESFLTWL [YAP1]", "target system": "Scribble PDZ1 (Homo sapiens, UniProt Q14160)", "assay endpoint": "Phosphorylated selection Mean fraction", "reported value": 0.0002294}
{"biopolymer sequence": "PIHSLETSL [ATP2B2]", "target system": "Scribble PDZ1 (Homo sapiens, UniProt Q14160)", "assay endpoint": "Phosphorylated selection Mean fraction", "reported value": 0.0009701}
{"biopolymer sequence": "TMFLRETSL [GUCY1A2]", "target system": "Scribble PDZ1 (Homo sapiens, UniProt Q14160)", "assay endpoint": "Phosphorylated selection Mean fraction", "reported value": 0.5527}
{"biopolymer sequence": "SRDRKETSI [RALBP1]", "target system": "Scribble PDZ1 (Homo sapiens, UniProt Q14160)", "assay endpoint": "Phosphorylated selection Mean fraction", "reported value": 0}
{"biopolymer sequence": "TKGISITSI [GNRHR2]", "target system": "Scribble PDZ1 (Homo sapiens, UniProt Q14160)", "assay endpoint": "Phosphorylated selection Mean fraction", "reported value": "3.213e-5"}
{"biopolymer sequence": "KSEPFLTWL [WWTR1]", "target system": "Scribble PDZ1 (Homo sapiens, UniProt Q14160)", "assay endpoint": "Phosphorylated selection Mean fraction", "reported value": "1.399e-5"}
{"biopolymer sequence": "LPHSPHSHL [AAAS]", "target system": "Scribble PDZ1 (Homo sapiens, UniProt Q14160)", "assay endpoint": "Phosphorylated selection Mean fraction", "reported value": "6.993e-6"}
{"biopolymer sequence": "TALKVMTMV [DACT2]", "target system": "Scribble PDZ1 (Homo sapiens, UniProt Q14160)", "assay endpoint": "Phosphorylated selection Mean fraction", "reported value": "2.797e-5"}
{"biopolymer sequence": "VWLRKETRV [CYSLTR2]", "target system": "Scribble PDZ1 (Homo sapiens, UniProt Q14160)", "assay endpoint": "Phosphorylated selection Mean fraction", "reported value": "7.3245e-6"}
{"biopolymer sequence": "PLHSLETSL [ATP2B1]", "target system": "Scribble PDZ1 (Homo sapiens, UniProt Q14160)", "assay endpoint": "Phosphorylated selection Mean fraction", "reported value": 0.0003108}

Reference source for all entries: paper PMC6100724
